Attribution: the supplement of paper PMC6555819

Tested on: LXRb:RXRa (NR concentration 270 nM, RXRa partner concentration 90 nM)
Assay: PBM binding z-score (relative to random genomic background probes); higher = stronger binding; sequences stand for … in GC…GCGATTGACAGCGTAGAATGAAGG

{"Entry sequence": "TGTCAAAGTACAAAGGTAACGTAAGTATCCACAC", "PBM binding z-score": 0.542}
{"Entry sequence": "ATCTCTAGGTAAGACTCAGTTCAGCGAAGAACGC", "PBM binding z-score": 0.111}
{"Entry sequence": "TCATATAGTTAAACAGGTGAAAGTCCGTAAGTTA", "PBM binding z-score": 1.1}
{"Entry sequence": "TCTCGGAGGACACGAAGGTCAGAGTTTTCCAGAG", "PBM binding z-score": 1.22}
{"Entry sequence": "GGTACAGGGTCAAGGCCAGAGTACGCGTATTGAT", "PBM binding z-score": 3.89}
{"Entry sequence": "GGAACGAGGGCAACGTTGATAGCATCTGTCGACG", "PBM binding z-score": 0.0442}
{"Entry sequence": "CCTCGGGGGACAACAGGAGGTCAGAGCTGCCAGA", "PBM binding z-score": 3.52}
{"Entry sequence": "AGTCAAAGTTCAATAGGTAACGTAAGATTCAGCT", "PBM binding z-score": 3.08}
{"Entry sequence": "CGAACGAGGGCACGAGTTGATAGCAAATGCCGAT", "PBM binding z-score": 0.453}
{"Entry sequence": "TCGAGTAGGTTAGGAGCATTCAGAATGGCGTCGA", "PBM binding z-score": -0.438}
{"Entry sequence": "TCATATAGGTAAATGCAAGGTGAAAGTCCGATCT", "PBM binding z-score": 1.2}
{"Entry sequence": "TAGCCTAGGTCAGATCGGGCCAGTATCCGCTATA", "PBM binding z-score": 0.765}
{"Entry sequence": "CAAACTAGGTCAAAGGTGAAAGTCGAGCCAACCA", "PBM binding z-score": 4.52}

----------
System: RARb homodimer (NR concentration 270 nM)
Experiment: PBM binding z-score (relative to random genomic background probes); higher = stronger binding; sequences stand for … in GC…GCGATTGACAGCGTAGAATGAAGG
Measured quantity: PBM binding z-score

{"Entry sequence": "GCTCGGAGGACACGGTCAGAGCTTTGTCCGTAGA", "Obs value": 1.35}
{"Entry sequence": "TCATATAGGTAAATGCTATGTGAAAGTCCGATCT", "Obs value": -0.22}
{"Entry sequence": "ATATGTAGGTTTAGGGTCATTCAGGTTGGTTCGC", "Obs value": 3.05}
{"Entry sequence": "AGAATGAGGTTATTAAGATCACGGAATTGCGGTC", "Obs value": 0.99}
{"Entry sequence": "TCGAGTAGGTTAGGGGCATTTAGAATGGCGTCGA", "Obs value": 0.875}
{"Entry sequence": "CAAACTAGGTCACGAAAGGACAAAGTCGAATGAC", "Obs value": 4.13}
{"Entry sequence": "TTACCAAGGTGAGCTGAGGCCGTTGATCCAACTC", "Obs value": 0.505}
{"Entry sequence": "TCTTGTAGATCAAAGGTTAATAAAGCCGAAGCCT", "Obs value": 1.25}
{"Entry sequence": "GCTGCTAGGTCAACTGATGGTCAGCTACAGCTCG", "Obs value": 3.81}
{"Entry sequence": "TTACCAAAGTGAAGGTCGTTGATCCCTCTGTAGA", "Obs value": 0.733}
{"Entry sequence": "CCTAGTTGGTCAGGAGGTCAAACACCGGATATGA", "Obs value": 4.15}
{"Entry sequence": "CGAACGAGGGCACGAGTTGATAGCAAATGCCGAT", "Obs value": 1.05}
{"Entry sequence": "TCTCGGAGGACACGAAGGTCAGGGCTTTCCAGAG", "Obs value": 4.09}
{"Entry sequence": "ATCTCTAGGTAAAAGTTCAGTGGATCCCGAGGAT", "Obs value": 2.32}
{"Entry sequence": "CAAACTAGGTCACAGCGGTCAAAGTCCGTGCGTA", "Obs value": 4.53}
{"Entry sequence": "TCTCGGAGGACACGCAAGGTCAGAGCTCGACATC", "Obs value": 3.96}
{"Entry sequence": "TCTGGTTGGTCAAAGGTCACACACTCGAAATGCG", "Obs value": 4.94}
{"Entry sequence": "CTACCAAGGTGAACAAGGTCGTGGATTACTATTC", "Obs value": 2.22}
{"Entry sequence": "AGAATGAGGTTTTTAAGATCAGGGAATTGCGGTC", "Obs value": -0.159}
{"Entry sequence": "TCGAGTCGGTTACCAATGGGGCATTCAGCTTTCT", "Obs value": 0.134}
{"Entry sequence": "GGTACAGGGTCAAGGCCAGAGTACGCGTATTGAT", "Obs value": 3.76}
{"Entry sequence": "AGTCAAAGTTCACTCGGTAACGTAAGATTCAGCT", "Obs value": 3.89}
{"Entry sequence": "TATACAGGGTCAAAGGCCAGAGTTCGAATGTCGA", "Obs value": 3.91}
{"Entry sequence": "CGTTCAAGGTCAATGCTAGGTCAGTGAAAGCATT", "Obs value": 4.78}
{"Entry sequence": "TCAGACAGGTGAAGGTAACTAAGGTACGCAGTCG", "Obs value": 0.841}
{"Entry sequence": "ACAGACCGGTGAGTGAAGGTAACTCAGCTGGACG", "Obs value": -0.506}
{"Entry sequence": "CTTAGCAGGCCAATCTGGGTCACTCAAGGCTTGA", "Obs value": 2.2}
{"Entry sequence": "CATCAAAGTTCAACTAAGGTAACGTAAAGCACGC", "Obs value": 4.32}
{"Entry sequence": "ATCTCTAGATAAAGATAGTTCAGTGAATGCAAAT", "Obs value": 0.48}
{"Entry sequence": "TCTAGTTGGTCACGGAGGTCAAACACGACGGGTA", "Obs value": 4.53}
{"Entry sequence": "AGAATGAGGTTATACGTAGATCGGGGAAGAAAGT", "Obs value": 0.901}
{"Entry sequence": "CCTGCTATGTCATGGTCAGCTAATCTACAGTATG", "Obs value": 0.419}
{"Entry sequence": "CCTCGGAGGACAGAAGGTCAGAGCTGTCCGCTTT", "Obs value": 3.43}
{"Entry sequence": "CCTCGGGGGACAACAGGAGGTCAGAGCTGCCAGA", "Obs value": 3.75}
{"Entry sequence": "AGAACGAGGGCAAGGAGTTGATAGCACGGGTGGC", "Obs value": 0.992}
{"Entry sequence": "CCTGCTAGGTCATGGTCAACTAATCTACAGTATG", "Obs value": 3.37}
{"Entry sequence": "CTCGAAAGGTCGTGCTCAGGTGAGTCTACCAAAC", "Obs value": 2.6}
{"Entry sequence": "TATACAGGCTCAAAGGCCAGAGTACGAATGTCGA", "Obs value": 0.737}
{"Entry sequence": "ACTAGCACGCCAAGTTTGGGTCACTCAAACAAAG", "Obs value": 1.5}
{"Entry sequence": "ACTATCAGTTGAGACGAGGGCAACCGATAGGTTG", "Obs value": 1.12}
{"Entry sequence": "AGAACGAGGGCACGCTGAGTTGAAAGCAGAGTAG", "Obs value": 1.16}
{"Entry sequence": "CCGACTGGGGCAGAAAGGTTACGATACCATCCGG", "Obs value": 2.38}
{"Entry sequence": "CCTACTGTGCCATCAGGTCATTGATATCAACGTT", "Obs value": 2.98}
{"Entry sequence": "ACTAGCAGGCCAAGTTTGGGTGACTCAAACAAAG", "Obs value": 0.251}
{"Entry sequence": "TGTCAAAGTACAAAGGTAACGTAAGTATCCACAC", "Obs value": 1.01}
{"Entry sequence": "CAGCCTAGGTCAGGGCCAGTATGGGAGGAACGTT", "Obs value": 2.38}
{"Entry sequence": "ACAGACAGGTGATGCAGGTAACTCAGGCTATCAT", "Obs value": 0.184}
{"Entry sequence": "CGTCAAAGTTCAACTATGGTAACGTAAAGCACGC", "Obs value": 4.39}
{"Entry sequence": "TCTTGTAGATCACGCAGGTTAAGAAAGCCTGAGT", "Obs value": 0.254}
{"Entry sequence": "TAGCCTAGGTCATGCGGGCCGGTATAGTGTCGGC", "Obs value": 2.61}
{"Entry sequence": "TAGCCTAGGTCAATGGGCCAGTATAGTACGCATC", "Obs value": 3.07}
